- TARGET OF ASSAY: RhsP2tox (Pseudomonas aeruginosa, UniProt A0A0H2Z8A2, E1576Q)
- ASSAY SUMMARY: biochemical
METRIC: pKd
Scale: negative log10 of molar concentration, which is what pKd denotes.

Exercise: Find pKd (RhsP2tox (Pseudomonas aeruginosa, UniProt A0A0H2Z8A2, E1576Q)) for the entry `NC(=O)c1ccc[n+]([C@@H]2O[C@H](COP(=O)(O)OP(=O)(O)OC[C@H]3O[C@@H](n4cnc5c(N)ncnc54)[C@H](O)[C@@H]3O)[C@@H](O)[C@H]2O)c1`
Key: 3.89
